conditions: chicken, 60 seconds
Would you please tag the item true when its % peptide transported across membrane is 10% or above, and false when it is below?

- smiles repr: "NCCNCCNCCNCCN"
  label class: "true"
- smiles repr: "NCCc1ccc(O)cc1"
  label class: "true"
- smiles repr: "CC(C)N(CCN)C(C)C"
  label class: "false"
- smiles repr: "NCCN(CCN)CCN"
  label class: "true"
- smiles repr: "N=C(N)N"
  label class: "false"

###

assay: Delivery of fluorescent (FAM-tagged) peptide across chicken egg epithelial membrane with polyamine/amine carrier; settings: fold versus control without carrier; Example 5
quantity: amount of peptide transported across the membrane compared with the control test

- smiles repr: "NCCCNCCCN"
  result: "five times more peptide"
- smiles repr: "NCCCCNCCCN"
  result: "five times more peptide"
- smiles repr: "NCCCNCCCCNCCCN"
  result: "twice as much peptide"
- smiles repr: "NCCCNCCCNCCCN"
  result: "five times more peptide"
- smiles repr: "NCCCNCCNCCCN"
  result: "twice as much peptide"

###

conditions: chicken, 60 seconds
Binning of % peptide transported across membrane into classes: I (below 6%), II (6% to below 10%), III (10% or more)

- compound: "NCCCNCCCNCCCN"
  label class: "III"
- compound: "CCN(CC)CC [Triethylamine]"
  label class: "II"
- compound: "CCCCNCCCC [Dibutylamine]"
  label class: "I"
- compound: "CC(C)N(CCN)C(C)C [N,N-Diisopropylethylenediamine]"
  label class: "II"
- compound: "NCCCNCCCCNCCCN [Spermine]"
  label class: "III"
- compound: "NCCc1ccc(O)cc1 [Tyramine]"
  label class: "I"
- compound: "NCCNCCNCCNCCN [Tetraethylenepentamine]"
  label class: "III"
- compound: "NCCCCN [Putrescine]"
  label class: "II"
- compound: "NCCN [Ethylenediamine]"
  label class: "I"
- compound: "NCCCNCCNCCCN [1,2-Bis(3-aminopropylamino)ethane]"
  label class: "III"
- compound: "NCCN(CCN)CCN [Tris(2-aminoethyl)amine]"
  label class: "III"
- compound: "N=C(N)N [Guanidine]"
  label class: "I"
- compound: "NCCCCNCCCN [Spermidine]"
  label class: "III"
- compound: "CNCCCN [3-(Methylamino)propylamine]"
  label class: "I"

###

test: Delivery of lutein across chicken egg epithelial membrane with polyamine/amine carrier; settings: chicken, 60 seconds
Mark met for reported % peptide transported across membrane of 20% or greater; mark not met for anything smaller.

- compound: "CC(C)N(CCN)C(C)C [N,N-Diisopropylethylenediamine]"
  label class: "not met"
- compound: "NCCc1ccc(O)cc1 [Tyramine]"
  label class: "not met"
- compound: "NCCCCNCCCN [Spermidine]"
  label class: "met"
- compound: "NCCCNCCNCCCN [1,2-Bis(3-aminopropylamino)ethane]"
  label class: "met"
- compound: "NCCCCN [Putrescine]"
  label class: "not met"
- compound: "CCN(CC)CC [Triethylamine]"
  label class: "not met"
- compound: "NCCCNCCCCNCCCN [Spermine]"
  label class: "met"

###

test: Delivery of lutein across chicken egg epithelial membrane with polyamine/amine carrier; conditions: chicken, 60 seconds
quantity: amount of lutein transported across the membrane (bound stated in text)

- smiles repr: "NCCCCNCCCN"
  result: "> 20%"
- smiles repr: "N=C(N)N"
  result: "> 5%"
- smiles repr: "CCCCNCCCC"
  result: "> 5%"
- smiles repr: "NCCCCN"
  result: "> 5%"
- smiles repr: "NCCc1ccc(O)cc1"
  result: "> 5%"
- smiles repr: "CNCCCN"
  result: "> 5%"
- smiles repr: "NCCCNCCNCCCN"
  result: "> 20%"
- smiles repr: "NCCCNCCCCNCCCN"
  result: "> 20%"
- smiles repr: "NCCCNCCCNCCCN"
  result: "> 5%"
- smiles repr: "CC(C)N(CCN)C(C)C"
  result: "> 5%"
- smiles repr: "NCCNCCNCCNCCN"
  result: "> 5%"
